# System: c-Jun;c-Fos (;) (UniProt P05412+P01100)
# Sequence (P05412 252-315, chain 1 of 2): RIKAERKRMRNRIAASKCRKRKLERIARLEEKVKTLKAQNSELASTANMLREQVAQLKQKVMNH
# Sequence (P01100 137-200, chain 2 of 2): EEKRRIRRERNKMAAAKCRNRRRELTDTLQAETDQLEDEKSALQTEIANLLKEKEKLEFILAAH
# Test Method Notes: MITOMI (QPID)
# Experimental Context: QPID microfluidic MITOMI; 1 h incubation of in vitro expressed extract (about 25 ul, 50 ng protein) with spotted Cy5-dsDNA (0.0156-2 uM spotting dilutions, PEG …)
Observation Type: Kd (nM)
# number only, unit nM dropped from output

Task item: I'd like to know its Kd. The sequence in question is GGCCACTACCGCTTCCTCCACATGACGTCATGGTTTTCTCCACCAAGGAAGT (double strand) [oligo 1 (CRE)]
Reply: 190

Task item: Now this one: TTATCCACTTGCGCTCGCCGAGTGGCGTCACCAGCGGTACTGTAATGACGAT (double strand) [oligo 6 (CRE half-site)]
Reply: 4000

Task item: Now this one: TTATGACCTGGGAGTGACGTCATGGAATCCACAGA (double strand) [oligo 2 (CRE)]
Reply: 150

Task item: Now this one: GGCCACTACCGCTTCCTCCACATGAGTCATGGTTTTCTCCACCAAGGAAGT (double strand) [oligo 3 (AP-1)]
Reply: 270

Task item: Now this one: TTATGACCTGGGAGTGAGTCAATGGAATCCACAGA (double strand) [oligo 4 (AP-1)]
Reply: 500

Task item: Now this one: GGCCACTACCGCTTCCTCCACATGGCGTCATGGTTTTCTCCACCAAGGAAGT (double strand) [oligo 5 (CRE half-site)]
Reply: 3500
